Recorded Kd, one value per entry.
# measured.target: MUTE_ACTL (Arabidopsis thaliana, UniProt Q9M8K6)
# Construct: MUTE-ACTL (114-202); made in house; host or cells: E. coli BL21
# Sequence (Q9M8K6 114-202): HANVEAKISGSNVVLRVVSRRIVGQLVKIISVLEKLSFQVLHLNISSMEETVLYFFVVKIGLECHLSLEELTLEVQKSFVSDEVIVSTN
# assay.remarks: BLI direct binding
# Parameters: species or system A. thaliana
# condition: BLI steady state; MUTE_ACTL; read-out: KD (SS)

>  <compound>
O=C1C(c2ccccc2)=NC(NS(=O)(=O)c2ccccc2)(c2ccccc2)N1S(=O)(=O)c1ccccc1 (stereo not drawn)

>  <measured.target>
MUTE_ACTL (Arabidopsis thaliana, UniProt Q9M8K6)

>  <Kd>
13.1 µM

$$$$
>  <compound>
Cc1ccc(C2(NS(=O)(=O)c3ccccc3)N=C(c3ccccc3)C(=O)N2S(=O)(=O)c2ccccc2)cc1 (stereo not drawn)

>  <measured.target>
MUTE_ACTL (Arabidopsis thaliana, UniProt Q9M8K6)

>  <Kd>
126 µM

$$$$

Turning to the following compound.
Query: Data request, read-out Kd, for O=C1C(c2ccccc2)=NC(NS(=O)(=O)c2ccccc2)(c2ccc(Br)cc2)N1S(=O)(=O)c1ccccc1 (stereo not drawn)
Result: 139 µM

====

# measured.target: MUTE_ACTL (Arabidopsis thaliana, UniProt Q9M8K6)
# Construct: MUTE-ACTL (114-202); made in house; host or cells: E. coli BL21
# assay.remarks: ITC direct binding
# Parameters: species or system A. thaliana
# condition: ITC; MUTE_ACTL; ND = no binding
# From the text: A. thaliana SCRM (1-494), ΔNSPCH (98-364), MUTE (1-202), ΔNFAMA (190-414), MUTEΔC (1-114), MUTER133A_R134A, MUTEE162A_E163A, MUTER133A_R134A_E162A_E163A, SCRM-ACTL (405-494), MUTE-ACTL (114-202), SPCH-ACTL (285-364), FAMA-ACTL (306-414), MUTE_ACTLR133A_R134A, MUTE_ACTLE162A_E163A, MUTE_ACTLR133A_R134A_E162A_E163A were cloned into pGEX-4T-1 vector with an N-terminal GST tag and a thrombin cleavage sequence. For protein expression, the constructs were transformed into E. coli strain BL21. […]
result.type: Kd (µM)
Express the result in µM but write the number alone.

Query: Data request, read-out Kd, for O=C1C(c2ccccc2)=NC(NS(=O)(=O)c2ccccc2)(c2ccccc2)N1S(=O)(=O)c1ccccc1 (stereo not shown)
Result: 9.8

====

# measured.target: MUTE (Arabidopsis thaliana, UniProt Q9M8K6)
# Construct: MUTE (1-202); made in house; host or cells: E. coli BL21
# Sequence (Q9M8K6 whole entry): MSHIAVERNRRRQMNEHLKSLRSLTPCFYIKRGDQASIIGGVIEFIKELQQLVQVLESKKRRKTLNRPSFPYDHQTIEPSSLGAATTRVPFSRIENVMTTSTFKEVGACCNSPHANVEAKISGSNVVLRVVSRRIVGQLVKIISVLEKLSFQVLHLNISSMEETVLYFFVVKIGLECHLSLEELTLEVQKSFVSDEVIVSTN
# assay.remarks: BLI direct binding
# Design: species or system A. thaliana
# condition: BLI steady state; MUTE; read-out: KD (SS)
result.type: pKd
Field pKd (float): negative decimal logarithm of the concentration in molar.

Query: Data request, read-out pKd, for O=C1C(c2ccccc2)=NC(NS(=O)(=O)c2ccccc2)(c2ccccc2)N1S(=O)(=O)c1ccccc1 (stereo not shown)
Result: 5.05

====

# measured.target: MUTE_ACTL (Arabidopsis thaliana)
# Construct: MUTE-ACTL (114-202); made in house; host or cells: E. coli BL21
# assay.remarks: BLI direct binding
# Set-up: species or system A. thaliana
# condition: MUTE_ACTL on Anti-GST sensor; Stomid 12.5 µM; rep-1, rep-2; read-out: KD
result.type: Kd
A complete answer gives the number followed by the unit.

Query: Data request, read-out Kd, for O=C1C(c2ccccc2)=NC(NS(=O)(=O)c2ccccc2)(c2ccccc2)N1S(=O)(=O)c1ccccc1 (stereo not shown)
Result: 11.9 µM
